- measurement target: Yer064c (UniProt P40041)
- Sequence: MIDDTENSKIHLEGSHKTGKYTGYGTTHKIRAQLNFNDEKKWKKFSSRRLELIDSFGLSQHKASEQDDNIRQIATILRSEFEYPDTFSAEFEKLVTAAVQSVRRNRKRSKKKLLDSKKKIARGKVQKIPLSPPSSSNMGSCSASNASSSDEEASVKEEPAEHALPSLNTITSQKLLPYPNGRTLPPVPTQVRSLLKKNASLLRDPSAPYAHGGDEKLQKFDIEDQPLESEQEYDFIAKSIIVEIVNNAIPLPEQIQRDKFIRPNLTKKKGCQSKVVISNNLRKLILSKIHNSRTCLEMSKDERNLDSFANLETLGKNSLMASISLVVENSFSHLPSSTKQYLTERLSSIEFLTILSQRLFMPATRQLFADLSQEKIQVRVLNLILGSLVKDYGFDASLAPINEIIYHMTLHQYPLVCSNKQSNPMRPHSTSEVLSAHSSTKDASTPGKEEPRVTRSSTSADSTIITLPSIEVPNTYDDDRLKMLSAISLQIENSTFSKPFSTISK
- measurement protocol: PBM E-score (8-mer binding enrichment) (E-score (-0.5 to 0.5)); higher = stronger / more preferred TF binding
- run parameters: protein concentration: 200 nM; construct: GST-full length
Whole data set: some 33,000 sequences, median “E-score (-0.5 to 0.5)” near -0.036, cut for the highest 2% near 0.37. Many of the other results were omitted from the sample, so the highest values are more common in it than they were.
T means recorded PBM E-score is 0.001 or above; F means it is below 0.001.

Would you please look over these solved cases?
GGACTTAA :: T
ATTTAATC :: T
CCTTGGTA :: T
CACTCACA :: T
AGAGAGGG :: F
ATCATCGA :: T

Check the entry AGGCCTCG : does PBM E-score equal or exceed 0.001? F

Check the entry AGGATCGG : does PBM E-score equal or exceed 0.001? F

Check the entry CTACTAAA : does PBM E-score equal or exceed 0.001? T

###

Each entry below carries its reported PBM E-score.
- measurement target: Yer064c (UniProt P40041)
- Sequence: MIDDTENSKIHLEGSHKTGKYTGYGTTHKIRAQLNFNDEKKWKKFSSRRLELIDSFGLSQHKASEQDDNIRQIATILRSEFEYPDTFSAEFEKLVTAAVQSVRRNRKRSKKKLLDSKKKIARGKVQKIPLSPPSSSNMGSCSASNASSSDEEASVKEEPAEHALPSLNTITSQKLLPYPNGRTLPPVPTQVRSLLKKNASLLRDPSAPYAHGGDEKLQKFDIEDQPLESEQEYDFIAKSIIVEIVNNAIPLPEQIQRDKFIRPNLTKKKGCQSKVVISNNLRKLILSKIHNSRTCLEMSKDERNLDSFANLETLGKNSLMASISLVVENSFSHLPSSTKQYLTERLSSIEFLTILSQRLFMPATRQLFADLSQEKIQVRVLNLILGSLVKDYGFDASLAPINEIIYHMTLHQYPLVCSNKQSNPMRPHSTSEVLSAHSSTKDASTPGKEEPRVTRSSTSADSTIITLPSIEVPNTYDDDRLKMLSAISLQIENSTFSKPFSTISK
- measurement protocol: PBM E-score (8-mer binding enrichment) (E-score (-0.5 to 0.5)); higher = stronger / more preferred TF binding
- run parameters: protein concentration: 200 nM; construct: GST-full length
Whole data set: some 33,000 sequences, median “E-score (-0.5 to 0.5)” near -0.036, cut for the highest 2% near 0.37. The sample as a whole holds a higher share of the highest values than the screen did.
Give the figure by itself; no unit, no explanation.

# annotated cases, reported PBM E-score shown
AACGTCCG :: -0.343
ACTTATCG :: 0.0591
AATCACGC :: 0.391
CCTAGTCC :: 0.0749

Just so you know, measured PBM E-score for AATCACGT came out at 0.382

Just so you know, measured PBM E-score for GCTAGTCA came out at 0.448

Just so you know, measured PBM E-score for CGGTACAG came out at -0.12

Just so you know, measured PBM E-score for ACTAGTCA came out at 0.456

Just so you know, measured PBM E-score for CATCCGAA came out at 0.123

Just so you know, measured PBM E-score for GAGAGCCA came out at 0.132

Just so you know, measured PBM E-score for AATCACGA came out at 0.347

Origin of values: the supplement of paper PMC3334620
